Reported IC50 values for the following binders.
Study system: T1, human GLP-1 receptor (human, UniProt P43220 24-463)
T1 construct: whole, on cells
Assay text: SPA competition, displacement of 125I-GLP-1(7-36)NH2 from BHK membranes with human GLP-1 receptor; high HSA (2.0%)

{"Binder": "HXEGTFTSDVSSYLEEQAAREFIAWLVRGRK (Aib at position 8 (GLP-1 numbering); epsilon-amino of Lys37 acylated with branched side chain: Pre-linker 8xAdo; Branched linker eps-Lys(Bis); two Post-linkers Trx-gGlu, each carrying a C20 diacid Protractor, also called Chem. 33; N{Epsilon-37}-acylated [Aib8,Glu22,Arg26,Arg34,Lys37]-GLP-1-(7-37)-peptide) [GLP-1 derivative of Example 13]", "Unit annotation": "nM", "IC50": 32}
{"Binder": "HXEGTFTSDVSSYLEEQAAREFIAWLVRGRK (Aib at position 8 (GLP-1 numbering); epsilon-amino of Lys37 acylated with branched side chain: Pre-linker 2xAdo; Branched linker eps-Lys(Bis); two Post-linkers Trx-gGlu, each carrying a C20 diacid Protractor, also called Chem. 31; N{Epsilon-37}-acylated [Aib8,Glu22,Arg26,Arg34,Lys37]-GLP-1-(7-37)-peptide) [GLP-1 derivative of Example 11]", "Unit annotation": "nM", "IC50": 150}
{"Binder": "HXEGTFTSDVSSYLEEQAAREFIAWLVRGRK (Aib at position 8 (GLP-1 numbering); epsilon-amino of Lys37 acylated with branched side chain: Pre-linker 3xAdo; Branched linker eps-Lys(Bis); two Post-linkers Trx-gGlu-3xAdo, each carrying a C20 diacid Protractor (the printed name gives (4R) for the gGlu of one arm and (4S) for the other), also called Chem. 42; N{Epsilon-37}-acylated [Aib8,Glu22,Arg26,Arg34,Lys37]-GLP-1-(7-37)-peptide) [GLP-1 derivative of Example 22]", "Unit annotation": "nM", "IC50": 63}
